B1: Subtilisin-chymotrypsin inhibitor-2A, P01053 (parent)
chain: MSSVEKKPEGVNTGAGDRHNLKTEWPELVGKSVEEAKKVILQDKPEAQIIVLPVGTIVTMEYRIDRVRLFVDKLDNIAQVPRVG

# Variants of: B1
# condition-info: Hordeum vulgare; pH 6.25; 25 °C; GdnHCl; Fluorescence; MES 50 mM; reversible: yes; structure 2CI2; whole UniProt chain shown
Assign label 1 to entries whose denaturant midpoint (higher = more stable) meets or exceeds 3 M; assign label 0 to the rest.

Consider the following illustrative entries.
1) MSSVEKKPEGVNTGAGDRHNLKTEWPELVGKSVEEAKKVVLQDKPEAQIIVLPVGTIVTMEYRIDRVRLFVDKLDNIAQVPRVG [I40V] | label 1
2) MSSVEKKPEGVNTGAGDRHNLKTEWPELVGKSVEEGKKVILQDKPEAQIIVLPVGTIVTMEYRIDRVRLFVDKLDNIAQVPRVG [A36G] | label 1
3) MSSVEKKPEGVNTGAGDRHNLKTEWPELVGKSVEEAKKVILQDKPEAQIIVLPVGTIVTMEYRIDRVRLVVDKLDNIAQVPRVG [F70V] | label 0
4) MSSVEKKPEGVNTGAGDRHNLATEWPELVGKSVEEAKKVILQDKPEAQIIVLPVGTIVTMEYRIDRVRLFVDKLDNIAQVPRVG [K22A] | label 1
5) MSSVEKKPEGVNTGAGDRHNLKTEWPELVGKSVEEAKKVILQDKPEAQIIVLPVGTIVTMEYAIDRVRLFVDKLDNIAQVPRVG [R63A] | label 1

QUERY: Confirm if denaturant midpoint (higher = more stable) reported for the variant MSSVEKKPEGVNTGAGDRHNLKTEWPELVGKAVEEAKKVILQDKPEAQIIVLPVGTIVTMEYRIDRVRLFVDKLDNIAQVPRVG [S32A] is 3 M or above.
RESULT: label 1

QUERY: Quick one: MSSVEKKPEGVNTGAGDRHNLATEWPALVGKSVEEAKKVILQDKPEAQIIVLPVGTIVTMEYRIDRVRLFVDKLDNIAQVPRVG [K22A E27A]
RESULT: label 1

QUERY: Now try MSSVEKKPEGVNTGAGDRHNLKTEWPELVGKSVEEAKKAILQDKPEAQIIVLPVGTIVTMEYRIDRVRLFVDKLDNIAQVPRVG [V39A] .
RESULT: label 1

QUERY: Item: MSSVEKKPEGVNTGAGDRHNLKTEWAELVGKSVEEAKKVILQDKPEAQIIVLPVGTIVTMEYRIDRVRLFVDKLDNIAQVPRVG [P26A]
RESULT: label 1

QUERY: And for MSSVEKKPEGVNTGAGDRHNLKTEWPELVGKSVEEAKKVILQDKPEAQIIVLPVGTAVTMEYRIDRVRLFVDKLDNIAQVPRVG [I57A] ?
RESULT: label 1
